Test: acute toxicity test, mouse
Format: in vivo
Conditions: in vivo, ip, male, i.p., 14 days observed, read-out: LD₅₀
value-kind: LD50 at 336 h

CC(=O)N[C@H]1[C@H]([C@H](O)[C@H](O)CO)OC(O)(C(=O)[O-])C[C@@H]1O.[Na+] (stereo partly shown)
> 5000 mg/kg

---

Assay: simple acute toxicity test, intravenous injection to mouse
Assay type: in vivo, ddy male mouse
Details: mouse, in vivo; 2000 mg/kg intravenous, observed 7 days, 3 mice; read-out: Final death rate (converted)
value-kind: mortality at 168 h (%)

CC(=O)N[C@H]1[C@H]([C@H](O)[C@H](O)CO)OC(O)(C(=O)[O-])C[C@@H]1O.[K+] (some centres unmarked) [Potassium N-acetylneuraminate]
100
CC(=O)NC1C(O)CC(O)(C(=O)O)OC1C(O)C(O)CO (centres unmarked) [Magnesium N-acetylneuraminate]
100
